system: human GLP-1 receptor (human, UniProt P43220 24-463)
protocol text: cell-based or functional assay
Listing of recorded cAMP EC50 by entry.

{"binder": "IP298 (Fc fusion) YSEGTFTSDVSSYLERQAIDEFIAWLLKGGAAAGGSGSTASSGSGSATGGGGAATHTCPPC", "units of measure": "pM", "cAMP EC50": 180}
{"binder": "IP255 (Fc fusion) YSEGTFTSDYSKLLEEEAVRLFIEWLKNGTGGGGGSGGGGSGGGGSGGGGSATHTCPPCPAPEF", "units of measure": "pM", "cAMP EC50": 220}
{"binder": "IP285 (Fc fusion) YSEGTFTSDYSKLLEEEAVRLFIEWLVKGPGGGGGGGGGGGGGGGGGGGGGGGATHTCPPC", "units of measure": "pM", "cAMP EC50": 76}
{"binder": "IP374 (Fc fusion) YSEGTFTSLYSKLLEEEAVRLFIEWLLAGGGGGGSGGGGSGGGGSGGGGSATHTCPPC", "units of measure": "pM", "cAMP EC50": 1400}

Each recorded value in this set is attributed to patent US20160185837A1.
